Some molecules, each annotated with its measured inhibition at 0.01 µM.
Target: PI3K-δ (PI3K(p1108/p857) (h)) (Homo sapiens)
Sequence (O00329 whole entry): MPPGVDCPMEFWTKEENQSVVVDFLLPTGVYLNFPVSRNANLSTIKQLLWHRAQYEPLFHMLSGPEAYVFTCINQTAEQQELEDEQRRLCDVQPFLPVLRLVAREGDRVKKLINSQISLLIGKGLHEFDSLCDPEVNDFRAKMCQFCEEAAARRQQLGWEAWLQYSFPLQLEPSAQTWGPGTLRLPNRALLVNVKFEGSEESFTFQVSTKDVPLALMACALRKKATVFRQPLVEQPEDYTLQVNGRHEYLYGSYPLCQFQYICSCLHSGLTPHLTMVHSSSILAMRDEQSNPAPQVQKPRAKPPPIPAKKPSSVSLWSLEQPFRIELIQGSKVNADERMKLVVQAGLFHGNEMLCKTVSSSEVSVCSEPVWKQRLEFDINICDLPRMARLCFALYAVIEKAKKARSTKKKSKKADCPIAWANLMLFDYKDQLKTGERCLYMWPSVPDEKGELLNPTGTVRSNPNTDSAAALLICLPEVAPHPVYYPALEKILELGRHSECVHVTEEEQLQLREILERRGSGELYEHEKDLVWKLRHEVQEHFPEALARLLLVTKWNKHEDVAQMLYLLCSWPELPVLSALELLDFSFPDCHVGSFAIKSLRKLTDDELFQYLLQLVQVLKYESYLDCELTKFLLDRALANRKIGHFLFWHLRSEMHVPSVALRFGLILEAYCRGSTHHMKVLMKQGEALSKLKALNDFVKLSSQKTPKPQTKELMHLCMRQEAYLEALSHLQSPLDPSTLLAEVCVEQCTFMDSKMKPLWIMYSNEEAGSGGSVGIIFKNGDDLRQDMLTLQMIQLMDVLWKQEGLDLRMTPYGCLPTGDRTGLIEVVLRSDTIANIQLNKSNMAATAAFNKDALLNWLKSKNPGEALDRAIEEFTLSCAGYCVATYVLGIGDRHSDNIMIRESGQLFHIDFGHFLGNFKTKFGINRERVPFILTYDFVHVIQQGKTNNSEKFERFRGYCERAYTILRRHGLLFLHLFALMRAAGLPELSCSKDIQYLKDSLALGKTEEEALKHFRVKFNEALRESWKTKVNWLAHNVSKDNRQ
Sequence (P27986 whole entry partner): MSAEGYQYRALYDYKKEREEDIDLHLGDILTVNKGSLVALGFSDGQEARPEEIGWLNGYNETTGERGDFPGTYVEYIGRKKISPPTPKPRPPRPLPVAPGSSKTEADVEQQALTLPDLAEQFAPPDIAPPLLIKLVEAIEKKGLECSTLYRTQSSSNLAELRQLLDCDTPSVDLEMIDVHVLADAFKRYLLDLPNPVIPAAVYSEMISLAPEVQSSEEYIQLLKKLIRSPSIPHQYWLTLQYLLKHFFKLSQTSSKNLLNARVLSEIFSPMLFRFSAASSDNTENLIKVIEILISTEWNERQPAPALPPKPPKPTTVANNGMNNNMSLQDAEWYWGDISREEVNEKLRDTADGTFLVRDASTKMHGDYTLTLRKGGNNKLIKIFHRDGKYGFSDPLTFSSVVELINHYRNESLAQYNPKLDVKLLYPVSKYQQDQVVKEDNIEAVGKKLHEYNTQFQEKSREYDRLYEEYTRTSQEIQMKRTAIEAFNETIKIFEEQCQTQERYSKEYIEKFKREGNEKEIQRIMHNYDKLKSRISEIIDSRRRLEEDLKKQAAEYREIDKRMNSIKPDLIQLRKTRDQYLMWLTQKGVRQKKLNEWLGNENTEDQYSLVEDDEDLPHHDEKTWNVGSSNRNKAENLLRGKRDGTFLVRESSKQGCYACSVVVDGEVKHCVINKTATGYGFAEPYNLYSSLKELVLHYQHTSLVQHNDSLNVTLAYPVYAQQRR
Test: Evaluation of inhibitory activity against PI3K-δ (HTRF kinase assay)
Format: biochemical
Conditions: compound concentration 0.01 μM; read-out: EXP_VALUE(% Inhibition) PI3K-δ 0.01 μM
RESULT TYPE: inhibition at 0.01 µM (%)

* COc1ncc(-c2cccc3c(Cl)c([C@H](C)Nc4ncnc5[nH]ccc(=O)c45)n(-c4ccccc4)c(=O)c23)cc1C [Example 197] | 91
* Cc1nc2ccc(-c3cccc4c(Cl)c([C@H](C)Nc5ncnc6[nH]ccc(=O)c56)n(-c5ccccc5)c(=O)c34)cc2o1 [Example 22] | 89
* C[C@H](Nc1ncnc2[nH]ccc(=O)c12)c1c(Cl)c2cccc(C3CC3)c2c(=O)n1-c1ccccc1 [Example 66] | 72
* CC(O)c1ccc(-c2cccc3c(Cl)c([C@H](C)Nc4ncnc5[nH]ccc(=O)c45)n(-c4ccccc4)c(=O)c23)cc1 (stereo partly shown) [Example 57] | 97
* COc1cc(-c2cccc3c(Cl)c([C@H](C)Nc4ncnc5[nH]ccc(=O)c45)n(-c4ccccc4)c(=O)c23)cc(OC)c1C [Example 177] | 28
* COCc1ncc(-c2cccc3c(Cl)c([C@H](C)Nc4ncnc5[nH]ccc(=O)c45)n(-c4ccccc4)c(=O)c23)cn1 [Example 55] | 59
* C[C@H](Nc1ncnc2[nH]ccc(=O)c12)c1c(Cl)c2cccc(Nc3ccc(C(F)(F)F)cc3)c2c(=O)n1-c1ccccc1 [Example 346] | 9
* C[C@H](Nc1ncnc2[nH]ccc(=O)c12)c1c(Cl)c2cccc(Nc3cccnc3)c2c(=O)n1-c1ccccc1 [Example 347] | 11
* C[C@H](Nc1ncnc2[nH]ccc(=O)c12)c1c(Cl)c2cccc(-c3ccc(N4CCCC4)cc3)c2c(=O)n1-c1ccccc1 [Example 87] | 38
* Cc1ccc2c(c1)CN(c1cccc3c(Cl)c([C@H](C)Nc4ncnc5[nH]ccc(=O)c45)n(-c4ccccc4)c(=O)c13)CC2 [Example 329] | 19
* C[C@H](Nc1ncnc2[nH]ccc(=O)c12)c1c(Cl)c2cccc(-c3cnc(C(F)(F)F)cn3)c2c(=O)n1-c1ccccc1 [Example 51] | 6
* C[C@H](Nc1ncnc2[nH]ccc(=O)c12)c1c(Cl)c2cccc(NC3CC3)c2c(=O)n1-c1ccccc1 [Example 323] | 22
* C[C@H](Nc1ncnc2[nH]ccc(=O)c12)c1c(Cl)c2cccc(-c3cnn(C4CC4)c3)c2c(=O)n1-c1ccccc1 [Example 96] | 86
